# Test system: rice (Or)
# assay info: Test Example 4: selectivity for a crop plant by flooded paddy field treatment
# Format: in vivo
# Design: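 0-5 phytotoxicity grade; 5 = over 90%; 4 = 70-90%; 3 = 50-70%; 2 = 30-50%; 1 = 10-30%; 0 = under 10%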
# measurement setup: rice transplanted at second leaf stage, dose 25 gai/10a, 21st day after treatment, index per Table 44
# Description: In a 100 cm^2 plastic pot, a paddy field soil was filled and paddled. Then, seeds of barnyard grass (Eo) and monochoria (Mo) were sown, and rice (Or) of second leaf stage was transplanted, and water was introduced to a depth of 3 cm. Next day, a wettable powder prepared in accordance with Formulation Example 1 was diluted with water and dropwise applied to the water surface. The dose was 25 g of the active ingredient per 10 ares. […]
Task for the reader: assign each of the following molecules its reported Or (herbicidal effect index on crop).
// print number alone

Q) // lookup Or (herbicidal effect index on crop) for CC(C)C(c1cncnc1C(F)(F)F)N(C)C(=O)CSc1ccc(Cl)cc1 (racemic)
A) 0

Q) // lookup Or (herbicidal effect index on crop) for CCN(C(=O)Cc1ccc(Cl)cc1)C(c1cncnc1C(F)F)C(C)C (racemic)
A) 1

Q) // lookup Or (herbicidal effect index on crop) for C#CCN(C(=O)Cc1ccccc1)C(CCC)c1cncnc1CC (racemic)
A) 1

Q) // lookup Or (herbicidal effect index on crop) for CCOCN(C(=O)Cc1ccc(C)cc1)C(c1cncnc1C(F)(F)F)C(C)C (racemic)
A) 0

Q) // lookup Or (herbicidal effect index on crop) for CN(C(=O)Cc1ccccc1)C(c1ccc(F)cc1)c1cncnc1C(F)(F)F (racemic)
A) 1

Q) // lookup Or (herbicidal effect index on crop) for COC1(C(c2cncnc2C(C)C)N(C)C(=O)Cc2ccc(C)cc2)OCCO1 (racemic)
A) 1

Q) // lookup Or (herbicidal effect index on crop) for C=CCN(C(=O)Cc1ccc(Cl)cc1)C(c1cncnc1C(F)(F)F)C(C)C (racemic)
A) 1

Q) // lookup Or (herbicidal effect index on crop) for CCc1ncncc1C(C(C)C)N(C)C(=O)Cc1ccc(Cl)s1 (racemic)
A) 1

Q) // lookup Or (herbicidal effect index on crop) for C#CCN(C(=O)Cc1ccc(F)cc1)C(c1cncnc1CC)C(C)C (racemic)
A) 1

Q) // lookup Or (herbicidal effect index on crop) for Cc1ccc(CC(=S)N(C)C(c2cncnc2C(F)(F)F)C(C)C)cc1 (racemic)
A) 1

Q) // lookup Or (herbicidal effect index on crop) for CC(C)C(c1cncnc1C(F)(F)F)N(C)C(=O)Cc1ccc(Cl)s1 (racemic)
A) 1

Q) // lookup Or (herbicidal effect index on crop) for CCCC(c1cncnc1C(F)(F)F)N(C)C(=O)Cc1ccc(C)cc1 (racemic)
A) 0

Q) // lookup Or (herbicidal effect index on crop) for CN(C(=O)Cc1ccsc1)C(c1ccccc1)c1cncnc1C(F)(F)F (racemic)
A) 1

Q) // lookup Or (herbicidal effect index on crop) for CN(C(=O)Cc1ccc(Cl)s1)C(c1ccccc1)c1cncnc1C(F)(F)F (racemic)
A) 0

Q) // lookup Or (herbicidal effect index on crop) for CCCc1ncncc1C(C(C)C)N(C)C(=O)Cc1ccc(C)cc1 (racemic)
A) 1

Q) // lookup Or (herbicidal effect index on crop) for CN(C(=O)Cc1ccc(C(F)(F)F)cc1)C(c1ccccc1)c1cncnc1C(F)(F)F (racemic)
A) 1

Q) // lookup Or (herbicidal effect index on crop) for CON=Cc1ncncc1C(C(C)C)N(C)C(=O)Cc1ccccc1 (racemic)
A) 1

Q) // lookup Or (herbicidal effect index on crop) for CN(C(=O)Cc1ccc(F)cc1)C(c1ccccc1F)c1cncnc1C(F)(F)F (racemic)
A) 1

Q) // lookup Or (herbicidal effect index on crop) for CCC(c1cncnc1C(C)(C)C)N(C)C(=O)Cc1ccc(Cl)cc1 (racemic)
A) 1

Q) // lookup Or (herbicidal effect index on crop) for C=CCN(C(=O)Cc1ccc(C)cc1)C(c1cncnc1C(F)(F)F)C(C)C (racemic)
A) 1

Q) // lookup Or (herbicidal effect index on crop) for Cc1ccc(C(C)(C)C(=O)N(C)C(c2cncnc2C(F)(F)F)C(C)C)cc1 (racemic)
A) 0

Q) // lookup Or (herbicidal effect index on crop) for Cc1ccc(C(c2cncnc2C(F)(F)F)N(C)C(=O)Cc2ccc(F)cc2)cc1 (racemic)
A) 1

Q) // lookup Or (herbicidal effect index on crop) for C#CCN(C(=O)Cc1ccsc1)C(c1cncnc1C(F)(F)F)C(C)C (racemic)
A) 1
